# reported RSV Neutralization - IC50; entries follow
Target: fusion glycoprotein of the RSV used in the neutralization assay of Example 1 (respiratory syncytial virus (strain not stated))
Assay: cell-based or functional assay
Kindly answer with a numeric value in µg/mL, unit omitted.

A selection of reference data follows.
// query Requested read-out: RSV Neutralization - IC50. Entry: MPK129 (antibody, V domains shown) VH: EVQLVESGGGLVKPGGSLRLSCEASGFSLSGYYMIWIRQAPGKGLEWISSISGSGNYIDYADSVKGRFTISRDNGHNTLYLQMNSLRVEDTAVYYCATEQTPSPGPFDHWGQGTLVTVSS VL: QTVVTQPPSVSGAPGQRVTISCTGTSSNIGTGYDVHWYQQFPGTSPKLLIYRNTNRPSGVPDRFSGSKSGSSASLAIAGLQAEDEADYYCQSYDRSVSGWVFGGGTKLTVL
// result 0.0149

// query # repeat for MPK161-v2 (antibody, V domains shown) VH: EVQLVQSGVEAKKPGESLKISCRASGYSFVNFWIGWVRQVPGKGLEWMGFIYPFDSDTKYGPSFEGHVIISADKSTNTAYLEWRSLRASDSAMYYCARFTFGIALVAGDVTGGGQAFEVWGQGTLVSVSS VL: EIVMMQSPATLSVSPGDRATLSCRASQSVAGNLAWYQQRPGQAPRLLIYAASTRATGVPARFSGSGSETEFTLTISSLQSEDFAVYYCHHYSNWPQAFGQGTRLDIK
// result 0.0011

// query # repeat for MPK155 (antibody, V domains shown) VH: EVQLVESGGGLVKPGGSLRLSCEASGISLSGYYMIWIRQAPGKGLEWISSISSSSNYIDYADSVRGRFTISRHNGQNTLYLQMNSLRVEDTAVYFCATEQTPSPGPFDLWGQGILVTVSS VL: QSVLTQPPSVSGAPGQRVTIFCTGTSSNLGAGYDVHWYQQFPGTSPKLLIYRYTNRPSGVPDRFSGSKSGSSASLAIAGLQAEDEADYYCQSYDRSVSGWVFGGGTKLTVL
// result 0.0265

// query # repeat for MPK127 (antibody, V domains shown) VH: QVQLVISGGGLVKPGGSLRLSCAASGFRIDSFSLNWVRQAPGKGLEWLASVSASSSYIDYRDSVAGRFTISRDNAQNSLYLQMDTLRAEDTAVYYCARTNGYETGSFDVWGQGTLVTVAS VL: QSVLTQPPSVSGAPGQRVTISCTGSSSNIGAGYDVHWYQQLPGKAPKLLINANNNRPSGVPDRFSGSNSGTSASLAITGLQAEDEADYYCQSYDKTLSGYVFGLGTTVTVL
// result 0.0787

// query # repeat for MPK163 (antibody, V domains shown) VH: EVQLVQSGAEVKKPGESLKMSCKTSGYSFRSYWIAWVRQRPGKGLEWMGIIWPGDSDVRYGPSFQGQVTISADRSTNTAYLQWSSLKASDTAIYWCARQNYDFWSGHSLGTGADYYYGMDVWGQGTTVTVSS VL: SSELTQPPSASGTPGQRVTISCSGSSSNIGRNIVHWYQHVPGTAPKLLIYNNDERPSGVPDRFSGSKSGTSASLAISGLQSEDEADYYCTVWDDSLNGGVFGGGTKVTVL
// result 0.0014

Note: attention shifts to another entry.
// query Requested read-out: RSV Neutralization - IC50. Entry: MPK175 (antibody, V domains shown) VH: QVQLVQSGAEVKKPGESLKISCQASGYSFINYWIGWVRQKPGKGLEWMGIIYPFDSETKYSPSFQGHVTISADRFTNTAYVQWTSLKASDTAIYYCARFTFGLAVVAGGLSDDGQAFDIWGQGTRVTVSS VL: EIVLTQSPATLSVSPGERATLSCRASQSVAANLAWYQQRPGQTPRLLIYGASTRATGVPARFSGSGSETEFTLTISSLQPEDFAVYYCHHYSDWPQAFGQGTRLDIK
// result 0.0016
